Origin of measurements: ChEMBL document CHEMBL1135912

- target.entity: Sodium-dependent dopamine transporter (Homo sapiens) (UniProt Q01959)
- Sequence (Q01959 whole entry): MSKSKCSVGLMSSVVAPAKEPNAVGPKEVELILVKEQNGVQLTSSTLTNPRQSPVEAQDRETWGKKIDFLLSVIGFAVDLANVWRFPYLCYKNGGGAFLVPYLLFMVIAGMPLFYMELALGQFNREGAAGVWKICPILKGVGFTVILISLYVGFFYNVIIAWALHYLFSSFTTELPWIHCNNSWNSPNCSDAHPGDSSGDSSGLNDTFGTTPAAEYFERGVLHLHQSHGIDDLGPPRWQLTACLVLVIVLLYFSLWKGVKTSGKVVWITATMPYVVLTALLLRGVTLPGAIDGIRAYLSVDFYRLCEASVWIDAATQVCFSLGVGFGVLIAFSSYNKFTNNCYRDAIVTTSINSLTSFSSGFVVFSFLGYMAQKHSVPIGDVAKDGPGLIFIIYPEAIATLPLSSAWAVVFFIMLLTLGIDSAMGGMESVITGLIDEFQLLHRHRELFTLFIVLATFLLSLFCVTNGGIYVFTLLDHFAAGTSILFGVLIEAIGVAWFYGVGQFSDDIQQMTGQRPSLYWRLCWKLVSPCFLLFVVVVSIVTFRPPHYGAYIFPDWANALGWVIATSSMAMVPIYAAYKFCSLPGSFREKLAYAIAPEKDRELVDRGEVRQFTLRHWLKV
- assay: Inhibition of radioligand [125I]RTI-55 binding to human Dopamine transporter in clonal cells
- Type: cell-based
quantity: pKD
API note: the answer field is a bare number with no unit suffix.

Here is how some molecules turned out for pKD.
molecule: COc1ccc(OC)c(/C=C/CN2CCN(CCOC(c3ccc(F)cc3)c3ccc(F)cc3)CC2)c1
target.entity: Sodium-dependent dopamine transporter (Homo sapiens) (UniProt Q01959)
pKD: 8.42

molecule: COc1ccc(CN(CCN2CCN(C/C=C/c3ccccc3)CC2)c2ccccn2)cc1
target.entity: Sodium-dependent dopamine transporter (Homo sapiens) (UniProt Q01959)
pKD: 5.66

molecule: Clc1ccc(C(OCCN2CCN(C/C=C/c3ccccc3)CC2)c2ccc(Cl)cc2)cc1
target.entity: Sodium-dependent dopamine transporter (Homo sapiens) (UniProt Q01959)
pKD: 7.42

molecule: Fc1ccc(CN(CCN2CCN(CCCc3ccccc3)CC2)c2ccccn2)cc1
target.entity: Sodium-dependent dopamine transporter (Homo sapiens) (UniProt Q01959)
pKD: 7.19

molecule: Fc1ccc(C(OCCN2CCN(C/C=C/c3ccccc3)CC2)c2ccc(Cl)cc2)cc1 (stereo not given)
target.entity: Sodium-dependent dopamine transporter (Homo sapiens) (UniProt Q01959)
pKD: 8.41

// query Look at this molecule and give its reported pKD. `C(=C\c1ccccc1)/CN1CCN(CCN(Cc2ccccc2)c2ccccc2)CC1`
// result 6.35

// query Look at this molecule and give its reported pKD. `Cc1ccc(/C=C/CN2CCN(CCOC(c3ccc(F)cc3)c3ccc(F)cc3)CC2)cc1`
// result 7.32
